# targetEntity: T1, human C-MET His tagged, monomeric (human, UniProt P08581 25-932)
# T1 construct: also called monomeric human C-MET; biotinylated human C-MET-His
# T1 sequence (P08581 25-932): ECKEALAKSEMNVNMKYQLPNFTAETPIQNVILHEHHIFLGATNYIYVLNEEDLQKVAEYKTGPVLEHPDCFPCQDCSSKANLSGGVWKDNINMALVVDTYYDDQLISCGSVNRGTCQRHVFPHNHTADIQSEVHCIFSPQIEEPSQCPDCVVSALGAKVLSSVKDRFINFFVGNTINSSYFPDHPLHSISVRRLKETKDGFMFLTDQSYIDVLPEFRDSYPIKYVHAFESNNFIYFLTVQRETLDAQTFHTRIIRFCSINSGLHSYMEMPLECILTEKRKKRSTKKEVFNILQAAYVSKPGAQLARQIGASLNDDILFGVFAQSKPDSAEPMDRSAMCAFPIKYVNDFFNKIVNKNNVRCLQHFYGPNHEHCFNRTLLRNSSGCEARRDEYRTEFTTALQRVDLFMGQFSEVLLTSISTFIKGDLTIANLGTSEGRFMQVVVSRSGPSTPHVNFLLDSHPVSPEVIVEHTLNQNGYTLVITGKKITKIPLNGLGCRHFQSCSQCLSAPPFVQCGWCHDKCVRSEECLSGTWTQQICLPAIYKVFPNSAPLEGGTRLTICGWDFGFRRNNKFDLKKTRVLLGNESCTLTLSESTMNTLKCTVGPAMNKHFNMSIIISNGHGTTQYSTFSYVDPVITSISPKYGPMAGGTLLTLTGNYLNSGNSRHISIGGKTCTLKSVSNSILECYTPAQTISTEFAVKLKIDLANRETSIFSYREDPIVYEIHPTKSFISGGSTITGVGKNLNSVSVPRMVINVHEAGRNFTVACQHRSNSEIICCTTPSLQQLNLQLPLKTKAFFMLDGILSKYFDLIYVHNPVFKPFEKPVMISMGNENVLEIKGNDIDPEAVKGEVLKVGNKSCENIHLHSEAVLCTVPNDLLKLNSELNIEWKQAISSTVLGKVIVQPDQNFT
# measurementProtocol: SPR Biacore, IgG captured, monomeric C-MET-His analyte
# Method: Affinity (KD) of purified IgGs was determined via SPR with antigen in-solution on a Biacore® 3000 (GE). […] The obtained sensorgrams were analysed using the Biacore® 3000 evaluation (BIAevaluation) software. The KD was calculated by simultaneous fitting of the association and dissociation phases to a 1:1 Langmuir binding model.
Quick reference: kon of the listed items.
Provide the reading as a plain figure in M⁻¹ s⁻¹.

Look over these answered cases.
- binder: "MH5 (antibody, IgG4, V domains shown) VH: QVQLVQSGAEVKKPGASVKVSCKASGYTFTSYTMHWVRQAPGQGLEWMGWINPSGGSTSYAQKFQGRVTMTRDTSTSTVYMELSSLRSEDTAVYYCARQEITTEFDYWGQGTLVTVSS VL: EIVLTQSPGTLSLSPGERATLSCRASQSVSSYAQSYLHWYQQKPGQAPRLLIYRGSTRETGIPDRFSGSGSGTDFTLTISRLEPEDFAVYYCQQSGSSPLTFGGGTKVEIK"
  reportedMetric: "kon"
  readoutValue: 77000
- binder: "MH3 (antibody, IgG4, V domains shown, also called MH03) VH: QVQLVQSGAEVKKPGASVKVSCKASGYTFTSYTMHWVRQAPGQGLEWMGWINPNGGSTSYAQKFQGRVTMTRDTSTSTVYMELSSLRSEDTAVYYCARQEITTEFDYWGQGTLVTVSS VL: EIVLTQSPGTLSLSPGERATLSCRASQSVSSYAQSYLHWYQQKPGQAPRLLIYRGSTRETGIPDRFSGSGSGTDFTLTISRLEPEDFAVYYCQQYGSSPLTFGGGTKVEIK"
  reportedMetric: "kon"
  readoutValue: 68000

Now take the following binder into account.
Task item: Return kon (reported value) for this binder: MH9 (antibody, IgG4, V domains shown) VH: QVQLVQSGAEVKKPGASVKVSCKASGYTFTSYTMHWVRQAPGQGLEWMGIINPSGGSTSYAQKFQGRVTMTRDTSTSTVYMELSSLRSEDTAVYYCARQEITTEFDYWGQGTLVTVSS VL: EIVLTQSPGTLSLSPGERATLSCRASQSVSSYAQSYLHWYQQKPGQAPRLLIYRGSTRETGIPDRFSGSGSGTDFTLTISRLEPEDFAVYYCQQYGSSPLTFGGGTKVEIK
Reply: 59000
